- Tested on: C33A
- assay notes: Primary qHTS to identify gynecologic anti-cancer compounds using libraries of approved drugs and bioactive compounds (AID 1345084); also: % is scaled to controls: 0 for no effect and ±100 for the full control effect; nearly all actives have a fitted effect of over 55% in size
- condition parameters: Gynecologic cancer cell panel viability, ATPlite luminescence, 48 h; series mostly up to 57.5 µM
Inconclusive results are not listed. Calls of active or inactive are those of the source. Calls follow the shape of the dose curve; as a rule, active = well fitted cell-killing curve with a large enough effect; inconclusive = small, poorly fitted or top-dose-only effect, or effect the other way; inactive = flat fitted curve, though single readings scatter.
measure: activity change, negative = cytotoxicity

compound	measure	measured
CC1(C)C(=O)N2c3ccccc3C(O)(CC(C(=O)O)n3cnc4ccccc4c3=O)C2N1O (centres undefined)	activity change, negative = cytotoxicity	inactive
C/C=C(\C)C(=O)OC[C@H]1O[C@@H](O[C@H]2[C@@H](O[C@H]3O[C@H](CO)[C@@H](O)[C@H](O)[C@H]3O[C@@H]3O[C@H](CO)[C@@H](O)[C@H](O)[C@H]3O)O[C@H](COC(=O)/C(C)=C/C)[C@@H](O)[C@@H]2O)[C@H](O)[C@@H](O)[C@@H]1O	activity change, negative = cytotoxicity	7.95% [at 11.6 µM] (inactive)
CC1(O)CCC2C(C3C1CCC3(C)O)C2(C)C (centres undefined)	activity change, negative = cytotoxicity	inactive
COC(=O)C1=COC(OC2OC(CO)C(O)C(O)C2O)C2C(C)C(OC(=O)/C=C/c3ccc(O)cc3)C(O)C12 (centres undefined)	activity change, negative = cytotoxicity	inactive

###

- Tested on: Zika virus NS2B-NS3 protease (unlinked complex)
- assay notes: Primary screen GU Rhodamine qHTS for Zika virus inhibitors: Unlinked NS2B-NS3 protease assay (AID 1347159); also: nearly all actives have a fitted effect of over 60% in size
- condition parameters: Recombinant ZIKV NS2B-NS3 protease, Rhodamine110 substrate fluorescence; series mostly up to 107 µM
Records with an inconclusive call do not appear. Active and inactive are the calls of the source. Calls come from the whole dose curve; as a rule, active = well fitted inhibition curve with a large enough effect; inconclusive = small, poorly fitted or top-dose-only effect; inactive = no such curve, though single readings can be large or run the other way.
Outcome codes: label 1 for active, label 0 for inactive

compound	class
CC(=O)O[C@@H]1C(=O)C(C)=C(CCC(C)CC(=O)O)[C@@]2(C)CCCC(C)(C)C12 (some centres undefined)	label 0
O=C(N[C@H](Cc1ccccc1)C(=O)O)c1sc2cc(F)ccc2c1Cl	label 1
CCN(CCN(C)C)C(=O)CNCc1cc(C(N)=O)ccn1	label 0
CC(=O)O[C@H]1C[C@@H](O)C(C)(C)C2C[C@@H](OC(C)=O)[C@@]3(C)C4=CCC(C(CO)CC(O)C5OC5(C)C)[C@]4(C)CCC3[C@]21C (some centres undefined)	label 0
CC1=COC(OC2OC(CO)C(O)C(O)C2O)C2C(CO)CC(OC(=O)/C=C/c3ccc(O)cc3)C12 (centres undefined)	label 0
C[C@@H]1C(=O)O[C@H](C)[C@H]1C[C@@H](O)[C@](C)(O)[C@H]1CC[C@@]2(O)C3=CC(=O)[C@@H]4C[C@@H](O)[C@@H](O)C[C@]4(C)C3CC[C@]12C (some centres undefined)	label 0
COC(=O)C1=C[C@@H](O)[C@@H](O)[C@H](O[C@@H]2O[C@H](CO)[C@@H](O)[C@H](O)[C@H]2OC(=O)/C=C/c2ccccc2)C1	label 0
COC(=O)C1=COC(OC2OC(CO)C(O)C(O)C2O)C2C(C)C(OC(C)=O)C(OC(=O)c3ccccc3)C12 (centres undefined)	label 0
CCC(C)C(N)C(=O)NCCN1CCOCC1 (centres undefined)	label 0
CC(=O)OC12CC(C)C(OC(=O)c3ccccc3)C1/C=C(/C)C(OC(=O)c1ccccc1)CC(=O)C(C)(C)/C=C/C(C)C2=O (centres undefined)	label 1
CC1CCC2(NC1)OC1C(O)C3C4CCC5CC(O[C@@H]6O[C@H](CO)[C@@H](O)[C@H](O)[C@H]6O[C@@H]6O[C@@H](C)[C@H](O)[C@@H](O)[C@H]6O)CCC5(C)C4CCC3(C)C1C2C (some centres undefined)	label 0
C[C@H]1[C@@H](O)[C@H](O)C2[C@]3(C)C([C@@H](O)[C@H]4OC(=O)[C@@H]1[C@@]24C)[C@](C)(O)C=C[C@H]3O[C@@H]1O[C@H](CO)[C@@H](O)[C@H](O)[C@H]1O (some centres undefined)	label 0
C=C[C@H]1[C@H](O[C@@H]2O[C@H](CO)[C@@H](O)[C@H](O)[C@H]2O)OC=C2C(=O)N3Cc4c([nH]c5ccccc5c4=O)[C@@H]3C[C@H]21	label 0
COC(=O)/C=C/c1ccc(O[C@@H]2O[C@H](CO)[C@@H](O)[C@H](O)[C@H]2O)cc1	label 0

###

- Test system: Hek293T
- assay notes: Primary qHTS to identify gynecologic anti-cancer compounds using libraries of approved drugs and bioactive compounds (AID 1345084); also: % is scaled to controls: 0 for no effect and ±100 for the full control effect; nearly all actives have a fitted effect of over 55% in size
- condition parameters: Gynecologic cancer cell panel viability, ATPlite luminescence, 48 h, control line for the selectivity index; series mostly up to 57.5 µM
- Text: National Center for Advancing Translational Sciences [NCATS] Assay Overview: Chemotherapeutic drug responses vary from cancer to cancer and from patient to patient. […] ATPlite is a luminescence based assay reliant on the conversion of a luciferase substrate to light in the presence of ATP. As a cytotoxic compound will suppress growth and decrease the number of cells, the concentration of ATP will decrease, and less light signal will be detected in the well. […]
Records with an inconclusive call do not appear. Activity calls are given as the source filed them. Calls follow the shape of the dose curve; as a rule, active = well fitted cell-killing curve with a large enough effect; inconclusive = small, poorly fitted or top-dose-only effect, or effect the other way; inactive = flat fitted curve, though single readings scatter.

compound	assayed target	activity change, negative = cytotoxicity
CC(C)CC(c1c(O)c(C=O)c(O)c(C=O)c1O)C1CCC(C)(O)C2CC(C(C)(C)O)CCC12C (stereo not given)	Hek293T	inactive
C[C@@H]1O[C@@H](O[C@H]2[C@@H]3C=CO[C@@H](O[C@@H]4O[C@H](CO)[C@@H](O)[C@H](O)[C@H]4O)[C@@H]3[C@@]3(CO)O[C@@H]23)[C@H](O)[C@H](O)[C@H]1OC(=O)/C=C/c1ccc(O)cc1	Hek293T	inactive
O=C(/C=C/c1ccccc1)O[C@@H]1[C@@H](CO)O[C@@](CO)(O[C@H]2O[C@H](CO)[C@@H](O)[C@H](O)[C@H]2O)[C@H]1O	Hek293T	inactive
CCN=C1N[C@@H]2[C@@H](O)[C@H](O)[C@@H](CO)O[C@@H]2S1	Hek293T	inactive
CCC(C)(C)C1CCc2c(sc(NC(=O)c3ccc(Br)cc3)c2C#N)C1 (stereo not given)	Hek293T	inactive
C=CC1(C)CC2CCC3C(C)(C(=O)O)CCCC3(C)C2=CC1=O (stereo not given)	Hek293T	inactive
C[C@@H]1O[C@@H](O[C@H]2[C@H](O[C@H]3[C@H](O[C@H]4CC[C@@]5(C)C(CC[C@]6(C)C5CC=C5[C@@H]7CC(C)(C)C[C@@H](O)[C@]7(C)CC[C@]56C)[C@@]4(C)CO)O[C@H](C(=O)O)[C@@H](O)[C@@H]3O)O[C@H](C(=O)O)[C@H](O)[C@@H]2O)[C@H](O)[C@H](O)[C@H]1O (stereo not given in full)	Hek293T	5.2% [at 11.6 µM] (inactive)
COc1cc(Nc2nc3c(s2)CCCC3c2ccccc2)ccc1-n1cnc(C)c1 (stereo not given)	Hek293T	8.6% [at 11.6 µM] (inactive)
C=C1C(O)CCC2(C)CC3(OC)OC(=O)C(C)=C3CC12 (stereo not given)	Hek293T	inactive
CC1CCC2C(C)(C)C(O)C(O)CC2(C)C12Cc1c(O)cc(CO)c(C=O)c1O2 (stereo not given)	Hek293T	inactive
CC(/C=C/C=C(\C)C(=O)O[C@@H]1O[C@H](CO[C@@H]2O[C@H](CO)[C@@H](O)[C@H](O)[C@H]2O)[C@@H](O)[C@H](O)[C@H]1O)=C\C=C\C=C(C)\C=C\C=C(/C)C(=O)O[C@@H]1C[C@](O)(C(=O)O)C[C@@H](O)[C@H]1OC(=O)/C=C/c1ccc(O)c(O)c1	Hek293T	-2.06% [at 11.6 µM] (inactive)
C[C@@H]1O[C@@H](O[C@H]2[C@H](OC(=O)[C@]34CCC(C)(C)C[C@H]3C3=CCC5[C@@]6(C)CC[C@H](O[C@@H]7O[C@H](CO[C@@H]8OC[C@H](O)[C@H](O)[C@H]8O)[C@@H](O)[C@H](O)[C@H]7O)C(C)(C)C6CC[C@@]5(C)[C@]3(C)C[C@H]4O)OC[C@@H](O)[C@@H]2O)[C@H](O)[C@H](O[C@@H]2OC[C@](O)(CO)[C@H]2O)[C@H]1O[C@@H]1OC[C@H](O)[C@H](O[C@@H]2OC[C@@H](O)[C@H](O)[C@H]2O)[C@H]1O (stereo not given in full)	Hek293T	8.51% [at 6.55 µM] (inactive)
CC1=COC(OC2OC(CO)C(O)C(O)C2O)C2C(CO)CC(OC(=O)/C=C/c3ccc(O)cc3)C12 (stereo not given)	Hek293T	inactive
CC1=CC23[C@H](C=C(C(=O)O)[C@@H]2COC(=O)[C@]3(O)CO)[C@@H]1C (stereo not given in full)	Hek293T	inactive
CC(=O)OCC1OC(O[C@H]2CC[C@@]3(C)C(CC[C@]4(C)C3CC=C3[C@@H]5CC(C)(C)CC[C@]5(C(=O)O)CC[C@]34C)[C@]2(C)CO)C(O)C(O)C1OC1OC(C)C(O)C(OC2OCC(O)C(O)C2O)C1O (stereo not given in full)	Hek293T	6.88% [at 11.6 µM] (inactive)
C/C=C/C(=O)OC1/C=C/C(O)C(OC(C)=O)CCC(=O)OC1C (stereo not given)	Hek293T	inactive
COc1cc(/C=C/C(=O)OC[C@H]2O[C@@H](OC3OC=C(C(=O)O)C4C(O)CC(C)(O)C34)[C@H](O)[C@@H](O)[C@@H]2O)cc(OC)c1O (stereo not given in full)	Hek293T	inactive
O=C(/C=C/N1C[C@@H]2C[C@@H]1CN2c1ccccn1)c1ccccc1O	Hek293T	inactive
O=C(O)C1(c2ccc(-c3ccc(Cl)c(Cl)c3)c(F)c2)CC1	Hek293T	inactive
C[C@@H]1O[C@@H](O[C@H]2[C@H](O)[C@@H](O)[C@H](OC(=O)[C@]34CCC(C)(C)C[C@H]3C3=CCC5[C@@]6(C)CC[C@H](O[C@@H]7O[C@H](C(=O)O)[C@@H](O)[C@H](O)[C@H]7O)C(C)(C)C6CC[C@@]5(C)[C@]3(C)CC4)O[C@@H]2CO)[C@H](O)[C@H](O)[C@H]1O (stereo not given in full)	Hek293T	10.3% [at 11.6 µM] (inactive)
Cc1onc(-c2ccccc2Cl)c1C(=O)N(C)c1ccc(Cl)cc1	Hek293T	inactive
COc1c2c(c(C)c3c1C(=O)OC3)OC1(C)CC(O)C34OC(OC)(CC(O)C3(C)C1C2)OC4(C)C (stereo not given)	Hek293T	inactive
COc1c2c(c(C)c3c1C(=O)OC3)OC1(C)CC(O)C34OC(OC)(CCC3(C)C1C2)OC4(C)CO (stereo not given)	Hek293T	inactive
O=C(C[C@@H]1C(C(=O)O)=CO[C@@H](O[C@@H]2O[C@H](CO)[C@@H](O)[C@H](O)[C@H]2O)/C1=C\CO)OCCc1ccc(O)c(O)c1	Hek293T	inactive
C=CC1(C)CC=C2C(CCC3C(C)(C(=O)O)CCCC23C)C1 (stereo not given)	Hek293T	inactive
